# assay system: monoclonal antibody DD-6
# assay summary: Competition ELISA with monoclonal antibody DD-6
# Assay type: binding, Biozzi mice
# test conditions: competitor vs monoclonal antibody DD-6; plate coated with A-triCDD-RSA
Documented I50 (inhibits antibody binding by 50%) across a set of molecules

Take a look at these entries with their results.
>>> result("Nc1c(Cl)ccc2c1Oc1cc(Cl)c(Cl)cc1O2 [1-amino-2,7,8-TriCDD]")
"0.02 ng"
>>> result("ClC1=C(Cl)C2(Cl)C3C4CC(C5OC45)C3C1(Cl)C2(Cl)Cl (stereo not drawn) [Endrin]")
"> 2000 ng"

So what's the measured I50 (inhibits antibody binding by 50%) for this one? ClC1C(Cl)C(Cl)C(Cl)C(Cl)C1Cl (stereo not drawn) [BHC]
> 2000 ng

So what's the measured I50 (inhibits antibody binding by 50%) for this one? Clc1ccc2c(c1)Oc1c(Cl)c(Cl)c(Cl)c(Cl)c1O2 [1,2,3,4,7-penta-CDD]
> 2 ng

So what's the measured I50 (inhibits antibody binding by 50%) for this one? ClC1=C(Cl)C2(Cl)C3C4C=CC(C4)C3C1(Cl)C2(Cl)Cl (stereo not drawn) [Aldrin]
> 2000 ng
